B1: glmS ribozyme (parent)
chain: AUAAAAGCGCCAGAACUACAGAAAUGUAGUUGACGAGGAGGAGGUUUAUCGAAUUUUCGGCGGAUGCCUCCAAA

# Variants of: B1
# assay_remarks: kcat; higher = faster cleavage; RNA array
# setup_conditions: with glucosamine-6-phosphate
This sample holds only a part of the variants without activity.
Hi there, I'd appreciate the recorded kcat for every entry that follows.

Measured kcat of AUAAAAGCGCCAGAACUACAGAAAUGUAGUAGACGAGGAGGGGGUUUAUCGAAUUUUCGGCGGAUGCCUCCAAA [U31A A42G] : 0.0179 s⁻¹

Measured kcat of AUAAAAGCGCCCGAACUACAGAAAUGUAGUUGACGAGGAGGAGGUUAAUCGAAUUUUCGGCGGAUGCCUCCAAA [A12C U47A] : 0.011 s⁻¹

Measured kcat of AUAAAAGCGCCAGAACUACAGAAAUGUAGUUGACGAGGAGGAGGUUUAUCGAAUUUUCGACGGAUGCCUUCAAA [G60A C70U] : 3.47e-05 s⁻¹

Measured kcat of AUAAAAGCGCCAGAACUACAGAAAUGUAGUUGACGAGGAGGAUGUUUACCGAAUUUUCGGCGGAUGCCUCCAAA [G43U U49C] : < 1e-05 s⁻¹

Measured kcat of AUAAAAGCGCCAGUACUACAGAAAUGUAGUUGACGAGGAGGAGGUUUAUCGAAUUUCCGGCGGAUGCCUCCAAA [A14U U57C] : 7.65e-05 s⁻¹

Measured kcat of AUAAAAGCGCCAGAACUACAGAAAUGUAGUUGACGAGGAGGAGGUUUAUCGAAUUAUCGGCGGAAGCCUCCAAA [U56A U65A] : 0.00156 s⁻¹

Measured kcat of AUAAAAGCGCCAGAGCUACAGAAAUGUAGUUGACGAGGAGGAGGUUUAUCGAAUUUUCGGCGGAUGCUUCCAAA [A15G C68U] : 0.00322 s⁻¹

Measured kcat of AUAAAAGCGGCUGAACUACAGAAAUGUAGUUGACGAGGAGGAGGUUUAUCGAAUUUUCGGCGGAUGCCUCCAAA [C10G A12U] : 8.15e-05 s⁻¹

Measured kcat of AUAAAAGCGCCAGAACUACAGAAAUGUAGUUGACGAGGAGGAUGUUUAUCGAAUUUUCGGCGGAAGCCUCCAAA [G43U U65A] : 4.13e-05 s⁻¹

Measured kcat of AUAAAAGCGCUAGAACUACAGAAAUGUAGUUGACGAGGAAGAGGUUUAUCGAAUUUUCGGCGGAUGCCUCCAAA [C11U G40A] : 0.000548 s⁻¹

Measured kcat of AUAAAAGCGCCAGAACUACAGAAAUGUAGUUGAGGAUGAGGAGGUUUAUCGAAUUUUCGGCGGAUGCCUCCAAA [C34G G37U] : < 1e-05 s⁻¹

Measured kcat of AUAAAAGCGCCAGAACUACAGAAAUGUAGAUGACGAGAAGGAGGUUUAUCGAAUUUUCGGCGGAUGCCUCCAAA [U30A G38A] : < 1e-05 s⁻¹

Measured kcat of AUAAAAGCGCCGGAACUACAGAAAUGUAGUUGACGAGGAGGAGGCUUAUCGAAUUUUCGGCGGAUGCCUCCAAA [A12G U45C] : 6.32e-05 s⁻¹

Measured kcat of AUAAAAGCGCCAGAACUACAGAAAUGUAGUUGACGAGGAGGAGGUUUAUAGAAUGUUCGGCGGAUGCCUCCAAA [C50A U55G] : 2.27e-05 s⁻¹

Measured kcat of AUAAAAGCGCCAUAACUACAGAAAUGUAGUUGACGAGGAGGAGGUUUAUCGAAGUUUCGGCGGAUGCCUCCAAA [G13U U54G] : 0.00069 s⁻¹

Measured kcat of AUAAAAGCGCCAGAACUACAGAAAUGUAGUUGACGAGGAGGAGGUUUAUCGAAUGGUCGGCGGAUGCCUCCAAA [U55G U56G] : 0.0156 s⁻¹

Measured kcat of AUAAAAGCGCCAGAACUACAGAAAUGUAGUUGACGAGGAGGAGGUUUAUCGAAUGUUCGGCGGAAGCCUCCAAA [U55G U65A] : 0.00461 s⁻¹

Measured kcat of AUAAAAGCGCCAGAACUACAGAAAUGUAGUUGACGAGGAGGAGGUUUAUCGAAUUUUCGGCGGGGGCCUCCAAA [A64G U65G] : 0.00619 s⁻¹

Measured kcat of AUAAAAGCGCCAGAACUACAGAAAUGUAGUUGACGAGGAGGAGGUUUAUCGAAUUUUCGGCGGAGUCCUCCAAA [U65G G66U] : 0.00147 s⁻¹

Measured kcat of AUAAAAGCGCAAGGACUACAGAAAUGUAGUUGACGAGGAGGAGGUUUAUCGAAUUUUCGGCGGAGGCCUCCAAA [C11A A14G U65G] : 0.000152 s⁻¹

Measured kcat of AUAAAAGCGUCAGAACUACAGAAAUGUAGUUGACGAGGAGGAGGUUUAUCGAAUCUUCGGCGGAUGCCUCCAAA [C10U U55C] : 3.56e-05 s⁻¹

Measured kcat of AUAAAAGCGCCAGAACUACAGAAAUGUAGUUGACGAGGAGGAGGUUUUUCGAAUUUUCGGCGGAUGCCGCCAAA [A48U U69G] : 5.22e-05 s⁻¹

Measured kcat of AUAAAAGCGCCAGAACUACAGAAAUGUAGUUGACGAGGAGGAGGUUUAUCGUAUUUUCGGCGGAUGCCUCUAAA [A52U C71U] : 0.000457 s⁻¹

Measured kcat of AUAAAAGCGCCAGACCUACAGAAAUGUAGUUGACGAGGAGGAGGUUUAUCGAAUUUUCGGCGGAUGCGUCCAAA [A15C C68G] : 2.69e-05 s⁻¹

Measured kcat of AUAAAAGCGCCAGAACUACAGAAAUGUAGUUGACGAGGAGGAGGUUAAUCGAAUUUUCGGCGGAUGUCUCCAAA [U47A C67U] : 0.00772 s⁻¹

Measured kcat of AUAAAAGCGCCAGAACUACAGAAAUGUAGUUGACGAGGAGGAGGUCUAUCGAAUUUUCGGCGGAUGCCUCAAAA [U46C C71A] : 0.000545 s⁻¹

Measured kcat of AUAAAAGCGCCAGAACUACAGAAAUGUAGUUGACGAGGAGGGGGUUUGUCGAAUUUUCGGCGGAUGCCUCCAAA [A42G A48G] : 9.11e-05 s⁻¹

Measured kcat of AUAAAAGCGCCAGAACUACAGAAAUGUAGUUGACGAGGAGGAGGUUUAUCGAAUUUGGGGCGGAUGCUUCCAAA [U57G C58G C68U] : 4.52e-05 s⁻¹

Measured kcat of AUAAAAGCGCCAGAACUACAGAAAUGUAAUUGACGAGGAGGAGGUUUAUCGAUUUUUCGGCGGAUGCCUCCAAA [G29A A53U] : 0.00212 s⁻¹

Measured kcat of AUAAAAGCGCCAGAACUACAGAAAUGUAGUUGACGAGGAAGAGGUUUAUCGAAUUUUCGGCGGAUGCCUACAAA [G40A C70A] : 0.000241 s⁻¹

Measured kcat of AUAAAAGCGCCAGAACUACAGAAAUGUAGUAGACGAAGAGGAGGUUUAUCGAAUUUUCGGCGGAUGCCUCCAAA [U31A G37A] : 0.0007 s⁻¹

Measured kcat of AUAAAAGCGCCAGAACUACAGAAAUGUAGUUGACGAGGAGGAGGUUUAUCGUAAUUUCGGCGGAUGCCUCCAAA [A52U U54A] : 0.000204 s⁻¹

Measured kcat of AUAAAAGCGGCAGAACUACAGAAAUGUAGUUGACGAGGAGGAGGUUUAUCGAAUUUUUGGCGGAUGCCUCCAAA [C10G C58U] : < 1e-05 s⁻¹
